target: NADPH-oxidase (Homo sapiens, UniProt P04839)
Construct: endogenous in cells
Sequence (P04839 whole entry): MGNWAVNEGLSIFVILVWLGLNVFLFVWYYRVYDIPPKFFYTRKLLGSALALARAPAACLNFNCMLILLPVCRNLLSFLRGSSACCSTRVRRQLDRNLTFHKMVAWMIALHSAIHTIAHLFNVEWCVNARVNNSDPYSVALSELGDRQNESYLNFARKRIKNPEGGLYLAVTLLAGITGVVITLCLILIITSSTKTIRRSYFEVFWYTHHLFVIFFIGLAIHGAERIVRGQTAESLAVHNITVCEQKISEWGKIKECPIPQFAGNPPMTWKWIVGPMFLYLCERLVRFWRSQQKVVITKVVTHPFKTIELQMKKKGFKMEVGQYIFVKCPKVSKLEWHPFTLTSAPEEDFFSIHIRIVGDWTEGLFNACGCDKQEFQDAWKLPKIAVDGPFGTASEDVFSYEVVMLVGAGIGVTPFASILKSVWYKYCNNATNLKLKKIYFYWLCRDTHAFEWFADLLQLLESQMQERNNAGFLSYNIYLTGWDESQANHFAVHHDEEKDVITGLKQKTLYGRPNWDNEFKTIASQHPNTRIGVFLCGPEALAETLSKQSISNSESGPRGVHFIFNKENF
procedure details: Oxidase Inhibition Assay (PMA-stimulated superoxide-mediated reduction of Cytochrome c, whole cells)
test conditions: human neutrophils, PMA 0.5 μM, absorbance at 550 nm
Items are presented alongside their recorded pIC50.
To interpret pIC50, take it as minus log10 of a concentration measured in moles per litre.

| molecule | pIC50 |
| --- | --- |
| CCCNCc1ccc(CNCCOc2ccc(C#Cc3ccc(Cl)cc3)cc2C)cc1 [Compound 3] | 5.86 |

Sure, the documented pIC50 for CC(C)NCc1ccc(CNCCOc2ccc(C#Cc3ccc(Cl)cc3)cc2)cc1 [Compound 4] is 5.92

Sure, the documented pIC50 for Cc1cc(C#Cc2ccc(Cl)cc2)ccc1OCCNCc1ccc(CNCc2ccccc2)cc1 [Compound 8] is 5.49

Sure, the documented pIC50 for CC(C)CCNCc1ccc(CNCCOc2ccc(C#Cc3ccc(Cl)cc3)cc2)cc1 [Compound 5] is 5.66

====

Structures can show the parent of a compound that is named as a salt.
quantity measured: melting point

Some compounds with recorded melting point:
| compound | melting point |
| --- | --- |
| CC(COc1ccc(C#Cc2ccc(Cl)cc2)cc1Cl)NCc1ccc(CN)cc1 (stereo not drawn) (as salt: HCl) | > 300 °C |
| CC(COc1ccc(C#Cc2ccc(F)cc2)cc1Cl)NCc1ccc(CN)cc1 (stereo not drawn) (as salt: HCl) | > 300 °C |
| Cc1ccc(C#Cc2ccc(OCC(C)NCc3ccc(CN)cc3)c(Cl)c2)cc1 (stereo not drawn) (as salt: HCl) | > 300 °C |
| CCC(COc1ccc(C#Cc2ccc(Cl)cc2)cc1C)NCc1ccc(CN)cc1 (stereo not drawn) (as salt: HCl) | 261.5 to 264 °C |
| Cc1cc(C#Cc2ccc(Cl)cc2)ccc1OCC(C)NCc1ccc(CN)cc1 (stereo not drawn) (as salt: HCl) | > 300 °C |

Now take the following compound into account.
Sure, the documented melting point for Cc1cc(C#Cc2ccc(Cl)cc2)ccc1OCCNCc1ccc(CNCCC2CCCN2C)cc1 (stereo not drawn) is 251 to 254 °C

====

Items are presented alongside their recorded pIC50.
target: NADPH-oxidase (Homo sapiens, UniProt P04839)
Construct: endogenous in cells
procedure details: Oxidase Inhibition Assay (PMA-stimulated superoxide-mediated reduction of Cytochrome c, whole cells)
test conditions: human neutrophils, PMA 0.5 μM, absorbance at 550 nm
Protocol: Whole cells (human neutrophils) are incubated with a pro-inflammatory agonist phorbol myristate acetate (PMA) in the presence or absence of test compound to measure the superoxide-mediated reduction of Cytochrome c at 550 nm. Inhibition of the oxidase is determined by a decreased absorbance at 550 nm, in response to test compound, relative to the absorbance seen with a vehicle control. The buffy coat from one unit of blood is split evenly into four 50 mL tubes. […]
To interpret pIC50, take it as minus log10 of a concentration measured in moles per litre.

Sure, the documented pIC50 for CC(COc1ccc(C#Cc2ccc(F)cc2)cc1Cl)NCc1ccc(CN)cc1 (stereo not shown) is 5.98

Sure, the documented pIC50 for `Cc1cc(C#Cc2ccc(Cl)cc2)ccc1OCCNCc1ccc(CNCCC(C)C)cc1` is 5.64

Sure, the documented pIC50 for `Cc1cc(C#Cc2ccc(Cl)cc2)ccc1OCCNCc1ccc(CNCCN2CCCC2)cc1` is 5.63

Sure, the documented pIC50 for `CN(C)CCCNCc1ccc(CNCCOc2ccc(C#Cc3ccc(Cl)cc3)cc2)cc1` is 6.11

Sure, the documented pIC50 for `Cc1cc(C#Cc2ccc(Cl)cc2)ccc1OCCNCc1ccc(CNCCCN2CCOCC2)cc1` is 5.79

Sure, the documented pIC50 for `Cc1cc(C#Cc2ccc(Cl)cc2)ccc1OCCNCc1ccc(CNCCN2CCOCC2)cc1` is 5.58

Sure, the documented pIC50 for `CCCCCCNCc1ccc(CNCCOc2ccc(C#Cc3ccc(Cl)cc3)cc2C)cc1` is 4.95

Sure, the documented pIC50 for Cc1cc(C#Cc2ccc(Cl)cc2)ccc1OCCNCc1ccc(CNCCCOC(=O)C2CCCCN2)cc1 (stereo not shown) is 5.52

Sure, the documented pIC50 for `Cc1cc(C#Cc2ccc(Cl)cc2)ccc1OCCNCc1ccc(CN)cc1` is 5.75

Sure, the documented pIC50 for Cc1cc(C#Cc2ccc(Cl)cc2)ccc1OCC(C)NCc1ccc(CN)cc1 (stereo not shown) is 6.15

Sure, the documented pIC50 for `CCCNCc1ccc(CNCCOc2ccc(C#Cc3ccc(Cl)cc3)cc2)cc1` is 5.68

Sure, the documented pIC50 for Cc1ccc(C#Cc2ccc(OCC(C)NCc3ccc(CN)cc3)c(Cl)c2)cc1 (stereo not shown) is 6.15

Sure, the documented pIC50 for `Cc1cc(C#Cc2ccc(Cl)cc2)ccc1OCCNCc1ccc(CNC(C)(C)C)cc1` is 5.48

Sure, the documented pIC50 for `Cc1cc(C#Cc2ccc(Cl)cc2)ccc1OCCNCc1ccc(CNCCCc2ccccc2)cc1` is 5.08

Sure, the documented pIC50 for CCC(COc1ccc(C#Cc2ccc(Cl)cc2)cc1C)NCc1ccc(CN)cc1 (stereo not shown) is 6.10

Sure, the documented pIC50 for `CCCCCCCNCc1ccc(CNCCOc2ccc(C#Cc3ccc(Cl)cc3)cc2C)cc1` is 5.18

Sure, the documented pIC50 for CC(COc1ccc(C#Cc2ccccc2)cc1Cl)NCc1ccc(CN)cc1 (stereo not shown) is 6.07

Sure, the documented pIC50 for Cc1cc(C#Cc2ccc(Cl)cc2)ccc1OCCNCc1ccc(CNCCC2CCCN2C)cc1 (stereo not shown) is 6.00

Sure, the documented pIC50 for CC(COc1ccc(C#Cc2ccc(Cl)cc2)cc1Cl)NCc1ccc(CN)cc1 (stereo not shown) is 6.15

Just for reference, patent US7476672B2 is where these values come from.
